Experiment: Human HepG2 cell viability assay in 384 well format
Format: toxicity, cell-based
Set-up: dose 125 nL, time 70.5 hour; concentration not given beside the values
Details: HepG2 cells, read-out: Inhibition
Quantity: cytotoxicity at 70.5 h (%)
Field format: number, assumed %, no unit text.

Exercise: Return reported cytotoxicity at 70.5 h; argument: Cc1ccccc1C(=O)Nc1ccc(OC2CCN(C)CC2)cc1
Solution: -4.55

Exercise: Return reported cytotoxicity at 70.5 h; argument: CC(C)NC(=O)N1CCN(C(=O)C(C)C)CC2(CC(=O)N(C)C2)C1 (centres undefined)
Solution: 7.84

Exercise: Return reported cytotoxicity at 70.5 h; argument: Cc1cc(C)n(CC2CCCCN2Cc2cscn2)n1 (centres undefined)
Solution: -13.4

Exercise: Return reported cytotoxicity at 70.5 h; argument: CC(C)N1CC(NC(=O)c2ccc(Cl)s2)CC1=O (centres undefined)
Solution: -6.6

Exercise: Return reported cytotoxicity at 70.5 h; argument: Cc1cnn(C(C)C2CC2)c1NC(=O)c1ncccc1O (centres undefined)
Solution: 9.8

Exercise: Return reported cytotoxicity at 70.5 h; argument: CCOCCNC(=O)[C@@H]1CCCN1c1nccc(Nc2ccccc2)n1
Solution: -1.64

Exercise: Return reported cytotoxicity at 70.5 h; argument: O=C(c1n[nH]c2c1CCC2)N1CCCC1c1nc(-c2ccccc2)no1 (centres undefined)
Solution: -1.83

Exercise: Return reported cytotoxicity at 70.5 h; argument: O=C1NC[C@@]2(C(=O)O)CN(Cc3ccc(Oc4ccccc4)cc3)C[C@@H]12
Solution: -1.43

Exercise: Return reported cytotoxicity at 70.5 h; argument: COCCN1CCO[C@@H]2CN(C(=O)NCc3ccccc3)CC[C@@H]2C1
Solution: 2.53

Exercise: Return reported cytotoxicity at 70.5 h; argument: c1ncn(CC2CCCCN2Cc2csc(C3CCCC3)n2)n1 (centres undefined)
Solution: 33.9

Exercise: Return reported cytotoxicity at 70.5 h; argument: CCc1nccn1CCNC1CCN(c2nc3ccc(Cl)cc3s2)CC1
Solution: 40.5

Exercise: Return reported cytotoxicity at 70.5 h; argument: CC1=N[C@@]2(CC[C@@H]3CN(CC(C)C)C[C@@H]32)C(=O)N1
Solution: -4.43

Exercise: Return reported cytotoxicity at 70.5 h; argument: CN1CCS(=O)(=O)[C@@H]2CCN(C(=O)c3ccccc3)CC[C@@H]21
Solution: -9.02

Exercise: Return reported cytotoxicity at 70.5 h; argument: O=C(Cn1ccnc1)N1CCC(n2cc(-c3cccc(Cl)c3)nn2)CC1
Solution: 22.5

Exercise: Return reported cytotoxicity at 70.5 h; argument: CC(C)Oc1ccc(CNC(=O)C2CCS(=O)(=O)C2)cn1 (centres undefined)
Solution: 26.3

Exercise: Return reported cytotoxicity at 70.5 h; argument: COCCCS(=O)(=O)N1CCN(Cc2cccn2C)CC1
Solution: 43.4

Exercise: Return reported cytotoxicity at 70.5 h; argument: CCCS(=O)(=O)N1CCN(c2ccnc(N3CCCC3)n2)CC1
Solution: -7.03

Exercise: Return reported cytotoxicity at 70.5 h; argument: CC(C)N1CCCC(Cc2nccnc2Cl)CC1 (centres undefined)
Solution: 0.246

Exercise: Return reported cytotoxicity at 70.5 h; argument: Cn1cc(C2=NOC(C(=O)NC3(c4cccc(F)c4)CCCC3)C2)cn1 (centres undefined)
Solution: -4.3

Exercise: Return reported cytotoxicity at 70.5 h; argument: Cn1ccc(C(=O)NCc2cccc(Cn3ccnc3)c2)cc1=O
Solution: -4.36

Exercise: Return reported cytotoxicity at 70.5 h; argument: Cc1cc(NC(=O)CN2CCn3c(nnc3C(C)C)C2)on1
Solution: -0.984

Exercise: Return reported cytotoxicity at 70.5 h; argument: CC(C)OCCn1nnnc1Cc1ccc(Br)cc1
Solution: -5.01

Exercise: Return reported cytotoxicity at 70.5 h; argument: Cn1nc(C2CN(C(=O)c3ccncc3)C2)c2nccnc21
Solution: 13.9

Exercise: Return reported cytotoxicity at 70.5 h; argument: Cc1cccc2c(=O)n(C(C)Cc3cccnc3)cnc12 (centres undefined)
Solution: -8.06
